Each record here notes measured SPOT intensity.
Molecular target: T1, Sla1-2, P32790
T1 sequence (P32790 60-140, looked up): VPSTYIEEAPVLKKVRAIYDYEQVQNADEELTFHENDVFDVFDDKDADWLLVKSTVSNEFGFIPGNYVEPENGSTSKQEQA
Assay: SPOT array
Conditions: median of control spots 712
Lab note: write the figure by itself, no unit.

[
  {
    "BINDER": "LEFRAILFIPKRAPF",
    "EXPERIMENTAL_VALUE": 6
  },
  {
    "BINDER": "ISPPASPPPEFDFSK",
    "EXPERIMENTAL_VALUE": 0
  },
  {
    "BINDER": "PAPPPPPRASRPTPN",
    "EXPERIMENTAL_VALUE": 2
  },
  {
    "BINDER": "SHRLWLYAAPKRPKT",
    "EXPERIMENTAL_VALUE": 3
  },
  {
    "BINDER": "SKIRPTPRKPSRMAT",
    "EXPERIMENTAL_VALUE": 21
  }
]

Indicate the recorded SPOT intensity value for this binder: `QNTPPLPPKPKSPHL`
1

Indicate the recorded SPOT intensity value for this binder: `MARRRLPDRPPNGIG`
1

Indicate the recorded SPOT intensity value for this binder: `TEVPIPRRPPPPQAA`
0

Indicate the recorded SPOT intensity value for this binder: `WTQRRGPLVVYAEDN`
0

Indicate the recorded SPOT intensity value for this binder: `DKKTKPTPPPKPSHL`
1

Indicate the recorded SPOT intensity value for this binder: `VKPRQLFPIPLNKVD`
0
